Hi there, I'd appreciate the recorded viability for every entry that follows.
# experimental-protocol: SK-BR-3 cell growth inhibitors, pilot screen, 24 h, human (AID 572);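 also: compound exposure lasted between 18 and 24 h rather than exactly 24 h; 100% = carrier-treated control wells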
# measurement-conditions: SK-BR-3 viability, CellTiter-Glo luminescence, at 10 µM, stronger effect = lower value
Answer format: numeric, % implied, no suffix.

Just so you know, measured viability for COCCN1C(=O)C(=O)/C(=C(/O)c2ccc(OC(C)C)cc2)C1c1cccnc1 (stereo unspecified) came out at 94.5

Just so you know, measured viability for COc1ccc2cc(CN(Cc3ccco3)C(c3nnnn3C3CCCCC3)C(C)C)c(=O)[nH]c2c1 (stereo unspecified) came out at 100

Just so you know, measured viability for CCOC(=O)CC1=C(C(=O)OCC)C(c2ccc(C)o2)C(C#N)=C(N)O1 (stereo unspecified) came out at 95

Just so you know, measured viability for COc1ccccc1C(=O)Nc1ccc(S(=O)(=O)N2CCOCC2)cc1 came out at 104

Just so you know, measured viability for COC(=O)c1ccc(CSc2nc3c(cnn3-c3ccc(F)cc3)c(=O)[nH]2)o1 came out at 99

Just so you know, measured viability for Brc1ccc(-c2cn3cccnc3n2)cc1 came out at 130

Just so you know, measured viability for CSc1ccc(S(=O)(=O)Nc2cccc(F)c2)cc1 came out at 96

Just so you know, measured viability for CCOc1cc(-c2nc(-c3ccccc3OC)no2)cc(OCC)c1OCC came out at 90

Just so you know, measured viability for CCC1SC2=NC(C)=C(C(=O)OC)C(c3ccc(C)cc3)N2C1=O (stereo unspecified) came out at 94

Just so you know, measured viability for Cc1nc(-c2cccc(N)c2)cs1 came out at 103

Just so you know, measured viability for O=S(=O)(c1ccc2ccccc2c1)N1CCCCC1 came out at 102
